Measured bioavailability, listed per entry.
Experiment: Oral bioavailability in ICR mouse at 10 mg/kg measured at 0.5 to 24 hrs by LC-MS/MS analysis
Format: ADME, organism-based
Conditions: in vivo, time 0.5-24 hrs
Your answer should be a plain number; it is taken to be in %.

>  <structure.smiles>
Cc1nc(N2CCCC(F)(F)CC2)c(C(=O)Nc2ccc3c(c2)C(=O)NC3)cc1Cl

>  <bioavailability [%]>
27.2

$$$$

Attention now turns to another entry.
// bioavailability value for Cc1cc(F)ccc1Oc1cc(C(F)(F)F)ccc1C(=O)Nc1ccn(COP(=O)(O)O)c(=O)c1 : 50.1

* * *

Measured clearance, listed per entry.
Assay: Clearance in ICR mouse at 2 mg/kg, iv measured at 0.083 to 8 hrs by LC-MS/MS analysis
Assay type: ADME, organism-based
Conditions: in vivo, time 0.083-8 hrs
Your answer should be a plain number; it is taken to be in mL/min/kg.

>  <structure.smiles>
Cc1nc(N2CCCC(F)(F)CC2)c(C(=O)Nc2ccc3c(c2)C(=O)NC3)cc1Cl

>  <unit.string>
mL/min/kg

>  <clearance>
16.3

$$$$

Attention now turns to another entry.
// clearance value for Cc1cc(F)ccc1Oc1cc(C(F)(F)F)ccc1C(=O)Nc1ccn(COP(=O)(O)O)c(=O)c1 : 17.9
